study_system: FGF-1 (UniProt P05230 16-155, limits assumed)
Sequence (P05230 16-155 limits assumed): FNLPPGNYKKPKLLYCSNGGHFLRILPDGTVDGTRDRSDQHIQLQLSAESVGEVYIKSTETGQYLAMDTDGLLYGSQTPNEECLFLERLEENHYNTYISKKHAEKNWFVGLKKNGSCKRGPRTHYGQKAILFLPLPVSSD
method_summary: binding assay, method not restated
property_name: binding result

| binder | value |
| --- | --- |
| QPSVGQQMIFEEHGFRRTTPPTTAT (Synthetic peptide) [peptide 4 (QPSVGQQMIFEEHGFRRTTPPTTAT)] | no binding |
| QPSHISKYILRWRPKNSVGRWKEAT (Synthetic peptide; also called FN634-658) [peptide 1 (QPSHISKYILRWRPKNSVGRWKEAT)] | no binding |
| QLISIQQYGHQEVTRFDFTTTSTST (Synthetic peptide) [peptide 2 (QLISIQQYGHQEVTRFDFTTTSTST)] | no binding |
| NGQTPIQRTIKPDVRSYTITGLQPGT (Synthetic peptide) [peptide 3 (NGQTPIQRTIKPDVRSYTITGLQPGT)] | no binding |
